Target: T1, P6A-bS
T1 chain: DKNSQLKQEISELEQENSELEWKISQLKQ
Assay: two-hybrid library CCNG1;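 further: natural log of median RNA to DNA barcode read ratio; higher means stronger binding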
Experimental Readout: interaction score
The response must contain the number and no unit.

Query block: GET /values?readout=interaction score&item= DENSQLEQKISELKQKNSELKWEISQLEQ [P5A-bS]
Result block: 0.815

Query block: GET /values?readout=interaction score&item= DKNSQLKQEISELEQENSELEWKISQLKQ [P6A-bS]
Result block: -2.31

Query block: GET /values?readout=interaction score&item= DENSQLEQEISELEQEISELEWKNSQLKQ [P11A-bS]
Result block: 0.727

Query block: GET /values?readout=interaction score&item= DKNSQLKQKISELKQKISELKWENSQLEQ [P12A-bS]
Result block: -0.87

Query block: GET /values?readout=interaction score&item= DKNSQLKQENSELEQKISELKWKISQLKQ [P10A-bS]
Result block: -1.53

Query block: GET /values?readout=interaction score&item= DKISQLKQKNSELKQKNSELKWKISQLKQ [P2A-bS]
Result block: -1.71

Query block: GET /values?readout=interaction score&item= DKISQLKQKISELKQENSELEWENSQLEQ [P4A-bS]
Result block: -1.51

Query block: GET /values?readout=interaction score&item= DKNQQLKQKNQELEQKIQELEWEIQELEQ [4H4001-bN]
Result block: -2.58

Query block: GET /values?readout=interaction score&item= DEISQLEQENSELEQENSELEWEISQLEQ [P1A-bS]
Result block: 0.0466
